Experiment: Michaelis-Menten constant of the compound.
Type: ADME, Sus scrofa
Conditions: pig
ATTRIBUTE MEASURED: Km (µM)
Answers are plain numbers, in µM.

May I ask what Km has been recorded for CC1=CCC(CC(O[Si](C)(C)C(C)(C)C)c2ccccc2I)C(=O)CC1 (stereo unspecified) ?
460

---

Target: Potassium-transporting ATPase (Sus scrofa) (UniProt P18434+P19156)
Assay: Inhibition of procine gastric H+,K+-ATPase at 10 uM in vitro.
Assay type: tissue-based
Conditions: Stomach
Consider the following compounds; for each one, report its inhibition.
Numbers only, in %.

Reference set, count: 6
> print(dat)
                                   compound  obs.value
1  C=C[C@@]1(C)C[C@@H]1C(=O)CCC(O[Si](C)(C)C(C)(C)C)c1ccccc1I (some centres undefined)         50
2  C=C1CCC(C)=CC[C@@H]1C[C@H](/C=C(\I)CCCC1OCCO1)O[Si](C)(C)C(C)(C)C         63
3   C[C@]12CCC3=CC(=O)c4ccccc4[C@@]3(CC1)C2          9
4  CC1=CCC(CC(O)c2ccccc2I)C(=O)CC1 (centres undefined)         19
5  C=C[C@@]1(C)C[C@@H]1C(=O)CCC(O)c1ccccc1I (some centres undefined)         35
6  COCO[C@H]1C[C@@H]2CC(=O)C3[C@@H](C#N)CCC[C@]3(C)[C@]23CC[C@@]1(C)C3 (some centres undefined)          7

Dear colleague, could you send me inhibition for each of the items below? Thanks.
1. COCO[C@H]1C[C@@H]2C[C@@H](O[Si](C)(C)C)C3[C@@H](C#N)CCC[C@]3(C)[C@]23CC[C@@]1(C)C3 (some centres undefined)
2. C=C1CCC(C)=CC[C@@H]1C[C@@H](O)C#CCCCC1OCCO1
3. CO[C@H]1C[C@@H]2CC(=O)C3=C(CCC[C@@]3(C)CO)[C@]23CC[C@@]1(C)C3

1. 32
2. 13
3. 14

---

Molecular target: Potassium-transporting ATPase (Sus scrofa) (UniProt P18434+P19156)
Assay: Inhibition of procine gastric H+,K+-ATPase at 10 uM in vitro.
Format: tissue-based
Conditions: Stomach
Consider the following compounds; for each one, report its inhibition.
Give bare numbers, in %.

> print(dat)
                                   compound  attribute.measured  obs.value
1  CC1=CCC(CC(O[Si](C)(C)C(C)(C)C)c2ccccc2I)C(=O)CC1 (centres undefined)          inhibition         74
2  C[C@]12CC[C@@]3(C1)c1ccccc1C(=O)C[C@H]3C[C@@H]2O          inhibition         19
3  CO[C@H]1C[C@@H]2C[C@H](O)c3c(C(=O)O)cccc3[C@]23CC[C@@]1(C)C3          inhibition          0

Dear colleague, could you send me inhibition for each of the items below? Thanks.
1. COCO[C@H]1C[C@@H]2C[C@@H](O[Si](C)(C)C)C3[C@](C#N)(COCc4ccccc4)CCC[C@]3(C)[C@]23CC[C@@]1(C)C3 (some centres undefined)
2. CO[C@H]1C[C@@H]2CC(=O)c3ccccc3[C@]23CC[C@@]1(C)C3
3. COC(=O)[C@]1(C)CCC[C@@]2(C)[C@H]1[C@H](OC(=O)c1ccccc1)C[C@H]1CC(=O)[C@@]3(C)CC[C@]12C3
4. CC1=CCC(CCO)C(=O)CC1 (centres undefined)
5. C[C@]12CC[C@]3(C1)[C@H](CC2=O)C[C@@H](OC(=O)c1ccccc1)[C@H]1[C@](C)(C(=O)O)CCC[C@@]13C

44
17
74
9
21

May I ask what inhibition has been recorded for C[C@]12C=CC3=CC(=O)c4ccccc4[C@@]3(CC1)C2 ?
9
